These entries and their values trace back to ChEMBL document CHEMBL3351746.

Test Details: Antiproliferative activity against human KBVIN cells after 3 days by SRB assay
Assay type: functional, cell-based
Condition Description: 72 h
pIC50: −log10 of the molar value.
Parameter: pIC50

Lookup: Quick check: pIC50 of `COc1cc(/C=C/C=C/C=C/C(=O)N2CCCCC2)cc(OC)c1OC` ?
Found: < 4.40

Lookup: Quick check: pIC50 of CCCCC/C=C/C=C/C(=O)NCC[S+](C)[O-] (configuration not stated) ?
Found: < 4.40

Lookup: Quick check: pIC50 of CCCCC/C=C/C=C/C(=O)N1CCCC1 [SARMENTINE] ?
Found: < 4.40

Lookup: Quick check: pIC50 of `COc1cc(/C=C/C=C/C=C/C(=O)N2CCCC2)cc(OC)c1OC` ?
Found: < 4.40

Lookup: Quick check: pIC50 of `CCCCCCC/C=C/C=C/C(=O)N1CCCC1` ?
Found: < 4.40

Lookup: Quick check: pIC50 of CC(C)CNC(=O)/C=C/CCCC/C=C/c1ccc2c(c1)OCO2 [RETROFRACTAMIDE C] ?
Found: < 4.40

Lookup: Quick check: pIC50 of `CCCCC/C=C/C=C/C(=O)NCCc1ccc(O)c(OC)c1` ?
Found: < 4.40

Lookup: Quick check: pIC50 of `COc1cc(CCCC/C=C/C(=O)N2CCCC2)cc(OC)c1O` ?
Found: < 4.40

Lookup: Quick check: pIC50 of `COc1cc(CCC(=O)n2cccc2)cc(OC)c1OC` ?
Found: < 4.40

Lookup: Quick check: pIC50 of `COc1cc(CCCC/C=C/C(=O)N2CCCCC2)cc(OC)c1OC` ?
Found: 5.11

Lookup: Quick check: pIC50 of `COc1cc(CC/C=C/C=C/C(=O)N2CCCCC2)cc(OC)c1OC` ?
Found: < 4.40

Lookup: Quick check: pIC50 of `O=C(/C=C/C=C/CCc1ccc2c(c1)OCO2)N1CCCC1` ?
Found: 4.51

Lookup: Quick check: pIC50 of `O=C(/C=C/C=C/CCCC/C=C/c1ccc2c(c1)OCO2)N1CCCC1` ?
Found: 4.72

Lookup: Quick check: pIC50 of `O=C(/C=C/C=C\CC/C=C/c1ccc2c(c1)OCO2)N1CCCC1` ?
Found: < 4.40

Lookup: Quick check: pIC50 of `COc1cc(CCCCCCC(=O)N2CCCC2)cc(OC)c1OC` ?
Found: 5.05

Lookup: Quick check: pIC50 of `COc1cc(CC/C=C/C=C/C(=O)N2CCCC2)cc(OC)c1OC` ?
Found: < 4.40

Lookup: Quick check: pIC50 of `CC(C)CNC(=O)CCCCCC/C=C/c1ccc2c(c1)OCO2` ?
Found: < 4.40
